Species on record: Rattus norvegicus
Test: Positive allosteric modulation of rat brain AMPA receptor assessed as potentiation of 2 fold of (S)-AMPA-induced current amplitude by FlipR method
The entries below are paired with their reported Activity.
readout label: Activity (µM)

{"columns": ["test smiles", "readout qualifier", "obs value"],
 "data": [
  ["O=S1(=O)NCN(CC(F)F)c2c(Cl)sc(Cl)c21", ">", 100],
  ["O=S1(=O)NCN(CC(F)F)c2cc(Cl)sc21", "=", 2.9],
  ["CCCN1CNS(=O)(=O)c2sc(Cl)cc21", "=", 25.1],
  ["CCCN1CNS(=O)(=O)c2c(Cl)sc(Cl)c21", ">", 100],
  ["CCN1CNS(=O)(=O)c2c(Cl)sc(Cl)c21", ">", 55]
]}
